RANK F-Score values, listed per item
# SYSTEM TESTED: T1, HLA-A*0201 HLA class I MHC monomer (iTopia Epitope Discovery System, coated on plate) (human)
# T1 construct: Placeholder peptide stripped; also called HLA-A2; MHC class I monomer
# PROTOCOL DESCRIPTION: overall rank from iTopia EDS and CEM T2 assays on HLA-A*0201
The answer should be written as a number, with no unit following it.

stdin: Quick one: RANK F-Score of ALLHSKYGL (Synthetic nonapeptide of human nectin4; the range counts on nectin4; also called Pep N° 80) [Nectin4 peptide 80 (ALLHSKYGL)] ?
stdout: 4

stdin: How about this binder: HILHVSFLA (Synthetic nonapeptide of human nectin4; the number is the start position in nectin4 (the range counts on nectin4)) [Nectin4 peptide 238 (HILHVSFLA)]
stdout: 7

stdin: How about this binder: KVAELVHFL (Control peptide from the literature, tested here) [reference peptide 515 (MAGE-A3), KVAELVHFL]
stdout: 10

stdin: How about this binder: VLPDVFIRC (Control peptide from the literature, tested here; also called GnTV peptide) [reference peptide 520 (GnTV), VLPDVFIRC]
stdout: 1

stdin: How about this binder: GLYDGMEHL (Control peptide from the literature, tested here) [reference peptide 517 (MAGE-A10), GLYDGMEHL]
stdout: 8
